src = ChEMBL document CHEMBL1136786

Please go through the items and note down their Ki.
State just the number; it will be interpreted in nM.

Request: Under Norepinephrine transporter (Rattus norvegicus, UniProt Q9WTR4): report Ki of CN1C2CC[C@@H]1C[C@H](c1ccc(Cl)cc1)C2c1cc(-c2ccccc2)no1 (stereo not given in full) .
Result: 304

Request: Under Norepinephrine transporter (Rattus norvegicus, UniProt Q9WTR4): report Ki of CN1C2CC[C@@H]1C[C@H](c1ccc(Cl)cc1)C2C(=O)N1CCCC1 (stereo not given in full) .
Result: 2370

Request: Under Norepinephrine transporter (Rattus norvegicus, UniProt Q9WTR4): report Ki of CN1C2CCC1C(C(=O)Oc1ccccc1)C(c1ccc(Cl)cc1)C2 (stereo not given) .
Result: 1780

Request: Under Norepinephrine transporter (Rattus norvegicus, UniProt Q9WTR4): report Ki of C=C(C)c1ccc([C@H]2C[C@H]3CCC(N3)C2C(=O)OC)cc1 (stereo not given in full) .
Result: 87

Request: Under Norepinephrine transporter (Rattus norvegicus, UniProt Q9WTR4): report Ki of COC(=O)C1C2CC[C@H](C[C@@H]1c1ccc(I)cc1)N2C (stereo not given in full) .
Result: 21.6

Request: Under Norepinephrine transporter (Rattus norvegicus, UniProt Q9WTR4): report Ki of Cc1ccc([C@H]2C[C@H]3CCC(C2C(=O)OC(C)C)N3C)cc1 (stereo not given in full) .
Result: 1160

Request: Under Norepinephrine transporter (Rattus norvegicus, UniProt Q9WTR4): report Ki of CN(C)C(=O)C1C2CC[C@H](C[C@@H]1c1ccc(Cl)cc1)N2C (stereo not given in full) .
Result: 566

Request: Under Norepinephrine transporter (Rattus norvegicus, UniProt Q9WTR4): report Ki of Cc1ccc([C@H]2C[C@H]3CCC(C2c2ccccc2)N3C)cc1 (stereo not given in full) .
Result: 289

Request: Under Norepinephrine transporter (Rattus norvegicus, UniProt Q9WTR4): report Ki of COC(=O)C1C2CC[C@H](C[C@@H]1c1ccc(Cl)c(C)c1)N2C (stereo not given in full) .
Result: 2.8

Request: Under Norepinephrine transporter (Rattus norvegicus, UniProt Q9WTR4): report Ki of COC(=O)C1C2CC[C@H](C[C@@H]1c1cccc(I)c1)N2 (stereo not given in full) .
Result: 964

----------
- measurement target: Kappa-type opioid receptor (Cavia porcellus)
- test summary: Inhibition of [35S]GTP-gamma-S, binding in guines pig caudate stimulated by U69, 593 of Opioid receptor kappa 1
- Type: functional
readout kind: Ke (nM)
State just the number; it will be interpreted in nM.

Request: Please report Ke for the following molecule: CC1CN(C)C2CCCC1(c1cccc(O)c1)C2 (stereo not drawn)
Result: 76.4

Request: Please report Ke for the following molecule: CC(C)[C@@H](CN1CC[C@@](C)(c2cccc(O)c2)[C@@H](C)C1)NC(=O)CCc1ccc(O)cc1
Result: 4.7

Request: Please report Ke for the following molecule: C[C@H]1CN(C/C=C/c2ccccc2)CC[C@@]1(C)c1cccc(O)c1
Result: 1.04

Request: Please report Ke for the following molecule: CC1C2CCCC1(c1cccc(O)c1)CCN2C (stereo not drawn)
Result: 105

Request: Please report Ke for the following molecule: Cc1ccccc1/C=C/CN1CC[C@@](C)(c2cccc(O)c2)[C@@H](C)C1
Result: 0.17

Request: Please report Ke for the following molecule: C[C@H]1C2CCCC1(c1cccc(O)c1)CCN2CCc1ccccc1 (stereo partly drawn)
Result: 1.34

Request: Please report Ke for the following molecule: C[C@H]1CN(CC[C@H](O)C2CCCCC2)CC[C@@]1(C)c1cccc(O)c1
Result: 0.33

Request: Please report Ke for the following molecule: C[C@H]1CN(C/C=C/c2ccccc2Cl)CC[C@@]1(C)c1cccc(O)c1
Result: 0.567
